# Method Notes: Inhibition of West Nile virus His-tagged NS2B-NS3 protease expressed in Escherichia coli BL21(DE3) using Abz-Gly-Leu-Lys-Arg-Gly-Gly-3-(NO2)Tyr as substrate preincubated for 15 mins followed by substrate addition measured for 15 mins by fluorescence assay
Recorded Metric: pIC50
Convention used: pIC50 is expressed as -log10 of the molar concentration.

Record "CC(C)(C)c1ccc(C(=O)N[C@@H](Cc2ccc(NC(=N)N)cc2)C(=O)N[C@@H](CCCNC(=N)N)B(O)O)cc1" , field pIC50: 6.68

Record "N=C(N)NCCC[C@H](NC(=O)[C@H](Cc1ccc(N)cc1)NC(=O)c1ccccc1)B(O)O" , field pIC50: 5.13

Record "N=C(N)NCCC[C@H](NC(=O)[C@H](Cc1ccc(NC(=N)N)cc1)NC(=O)c1ccccc1)B(O)O" , field pIC50: 7.15
